Here the recorded ELISA binding hIL-12RB2/control is given for each entry.
- assayed target: T1, biotinylated recombinant human IL-12Rβ2 (human, UniProt Q99665 24-622, random biotinylated)
- T1 construct: Recombinant protein produced in-house, biotinylated; also called hIL-12RB2; human IL-12RB2
- T1 sequence: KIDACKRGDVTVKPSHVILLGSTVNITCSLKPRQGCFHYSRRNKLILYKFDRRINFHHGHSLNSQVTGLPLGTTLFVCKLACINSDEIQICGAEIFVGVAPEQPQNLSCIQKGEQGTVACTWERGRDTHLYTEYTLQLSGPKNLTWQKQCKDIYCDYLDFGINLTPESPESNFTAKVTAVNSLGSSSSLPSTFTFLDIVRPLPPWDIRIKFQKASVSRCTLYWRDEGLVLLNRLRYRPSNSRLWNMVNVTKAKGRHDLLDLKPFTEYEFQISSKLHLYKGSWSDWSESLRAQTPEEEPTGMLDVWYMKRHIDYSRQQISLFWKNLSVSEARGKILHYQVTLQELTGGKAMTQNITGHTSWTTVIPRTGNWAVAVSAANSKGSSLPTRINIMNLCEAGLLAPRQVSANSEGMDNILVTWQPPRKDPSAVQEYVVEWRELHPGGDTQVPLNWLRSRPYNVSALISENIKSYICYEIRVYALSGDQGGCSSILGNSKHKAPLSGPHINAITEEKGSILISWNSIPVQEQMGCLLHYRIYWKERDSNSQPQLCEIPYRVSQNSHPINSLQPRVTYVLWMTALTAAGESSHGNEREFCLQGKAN
- procedure text: ELISA, periplasmic extract on biotinylated hIL-12Rβ2, signal over control wells

>  <binder>
anti-IL-12Rβ2 VHH clone 20483 (VHH, not shown: small tags and cut ends, tested as periplasmic extract; also called 2CAM41) VHH: QVQLQESGGGLVQAGGSLRLSCAASGRTFSNSVIGWFRQAPGKEREFVAALSWSAGSEFYVDSFKGRFSISRDNAKNTVYLQMNSLKPEDTAVYYCAAKNPPHRWSDIGKSPQYAYWGQGTQVTVSS

>  <ELISA binding hIL-12RB2/control / ratio>
1.01

$$$$
>  <binder>
anti-IL-12Rβ2 VHH clone 20486 (VHH, not shown: small tags and cut ends, tested as periplasmic extract; also called 2CAM46) VHH: QVQLQESGGGLVQAGGSLRLSCAPSGRTFSTLAMAWFRQAPGKEREVVATISWSGGRTYYADSVKGRFTISRDNAKNTAFLQMNSLRPDDTAVYYCAARESDYGSYDYWGQGTQVTVSS

>  <ELISA binding hIL-12RB2/control / ratio>
0.973

$$$$
>  <binder>
anti-IL-12Rβ2 VHH clone 20547 (VHH, not shown: small tags and cut ends, tested as periplasmic extract; also called 3CAMS47) VHH: QVQLQESGGGLVQAGGSLRLSCAASGRTFSSYGMGWFRQAPGKERDFVAAISRGARNADYADSVKGRFTISRDNAKNTAYLQMNSLNPEDTAVYFCAAAYTYSGSHYVTARSSDYAYWGQGTQVTVSS

>  <ELISA binding hIL-12RB2/control / ratio>
1.02

$$$$
>  <binder>
anti-IL-12Rβ2 VHH clone 20471 (VHH, not shown: small tags and cut ends, tested as periplasmic extract; also called 2CAM11) VHH: QVQLQESGGGLVQAGGSLRLSCAASGRTFVTYAMGWFRQAPGKEREFVAAISWSGGRLYYADSAKGRFTISRDNAKNTVYLQMNSLKPEDTAVYYCAADPQDYTGRDYQRRRYDYWGQGTQVTVSS

>  <ELISA binding hIL-12RB2/control / ratio>
0.991

$$$$
>  <binder>
anti-IL-12Rβ2 VHH clone 20522 (VHH, not shown: small tags and cut ends, tested as periplasmic extract; also called 2CRMS58) VHH: QVQLQESGGGLVQPGGSLRLSCTASGSIFAIDDMYWYRQAPGKQREFVAYITATNSANYLDSVNGRFTISRDNAKNSVYLQMNSLKPEDTAVYYCNAKQIVGFQIDDYWGQGTQVTVSS

>  <ELISA binding hIL-12RB2/control / ratio>
1.01

$$$$
>  <binder>
anti-IL-12Rβ2 VHH clone 20519 (VHH, not shown: small tags and cut ends, tested as periplasmic extract; also called 2CRMS16) VHH: QVQLQESGGGLVQAGESLRLSCTASGSIFAIDDMYWYRQAPGKQREFVAYITATNSANYLDSVNGRFTISRDNAKNSVYLQMNSLKPEDTAVYYCNAKQIVGFQIDEYWGQGTQVTVSS

>  <ELISA binding hIL-12RB2/control / ratio>
0.973

$$$$

These data points were gathered from patent US20260209362A1.
